Reported activation by item:
# experiment-description: HSF-1 activators, primary screen, NIH3T3-HGL cells, MG132 stress, luminescence, single point (AID 504408);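 note: 0% = median of the neutral control wells and 100% = twice that signal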
# assay-conditions: NIH3T3-HGL HSF-1 luciferase reporter, MG132, 8 h; at 9 µM; hits give high values
Out of some 300,000 compounds screened, about 5,200 (1.7%) were called active. Many of the other results were omitted from the sample, so actives are more common in it than they were.
measurement-kind: activation (%)

[[record]]
molecule = "C=CCn1c(O)c(/C=N/N2CCOCC2)c(=O)[nH]c1=S"
measurement_kind = "activation"
result = 35

[[record]]
molecule = "O=C(O)C1CSC(c2cccnc2)N1 (stereo not drawn)"
measurement_kind = "activation"
result = 3.54

[[record]]
molecule = "O=C1NC(=O)N(CCc2ccc(F)cc2)C(=O)/C1=C/C=C/c1ccccc1"
measurement_kind = "activation"
result = 196

[[record]]
molecule = "COc1ccc(-n2c(-c3ccccc3)nc3ccccc3c2=O)cc1"
measurement_kind = "activation"
result = -4.8

[[record]]
molecule = "CN(C)CC1Oc2ccccc2OC1(O)c1ccccc1 (stereo not drawn)"
measurement_kind = "activation"
result = 89.4

[[record]]
molecule = "O=C(COC(=O)c1ccccc1)Nc1ccc(Cl)cc1C(=O)c1ccccc1"
measurement_kind = "activation"
result = -9.79

[[record]]
molecule = "CCOc1ccc(CN(CCCl)CCCl)cc1C(=O)OC"
measurement_kind = "activation"
result = 68.2

[[record]]
molecule = "CC[C@H]1CC2CN3CCc4c([nH]c5ccccc45)C(C(=O)OC)(C2)C13 (stereo partly drawn)"
measurement_kind = "activation"
result = 3.35

[[record]]
molecule = "O=C1NC(=O)N(Cc2ccco2)C(=O)/C1=C\\c1ccc(-c2ccc(F)cc2)o1"
measurement_kind = "activation"
result = 14.8

[[record]]
molecule = "CC12CCC3C(CCC4CC(=O)CCC43C)C1CC(=NO)C2=O (stereo not drawn)"
measurement_kind = "activation"
result = -22.3

[[record]]
molecule = "CCOC(=O)C1SC2(C(F)(F)C(F)F)CC1(O)c1c(c(OC)c3occc3c1OC)O2 (stereo not drawn)"
measurement_kind = "activation"
result = -4.08

[[record]]
molecule = "COc1ccc(C2NCc3ccc4c(c3-n3cccc32)OCO4)cc1OC (stereo not drawn)"
measurement_kind = "activation"
result = 4.67

[[record]]
molecule = "CCCOC(=O)C1C2c3ccccc3C(c3ccccc32)C1C(=O)O (stereo not drawn)"
measurement_kind = "activation"
result = -7.72

